target: Jak2 (UniProt O60674); assay: phosphorylation enrichment, bacterial display (enrichment ratio); higher = better substrate or ligand; peptides without Tyr show the background;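 also: 11-residue human phosphosite peptides and single-mutation variants displayed on the E. coli surface, counted by deep sequencing, each peptide's frequency after selection divided by its frequency in the unselected input library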;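 also: frequency after pTyr selection over input frequency; kinase dosed for 20-30% of maximal phosphorylation in three min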
Sequence (O60674 whole entry, looked up): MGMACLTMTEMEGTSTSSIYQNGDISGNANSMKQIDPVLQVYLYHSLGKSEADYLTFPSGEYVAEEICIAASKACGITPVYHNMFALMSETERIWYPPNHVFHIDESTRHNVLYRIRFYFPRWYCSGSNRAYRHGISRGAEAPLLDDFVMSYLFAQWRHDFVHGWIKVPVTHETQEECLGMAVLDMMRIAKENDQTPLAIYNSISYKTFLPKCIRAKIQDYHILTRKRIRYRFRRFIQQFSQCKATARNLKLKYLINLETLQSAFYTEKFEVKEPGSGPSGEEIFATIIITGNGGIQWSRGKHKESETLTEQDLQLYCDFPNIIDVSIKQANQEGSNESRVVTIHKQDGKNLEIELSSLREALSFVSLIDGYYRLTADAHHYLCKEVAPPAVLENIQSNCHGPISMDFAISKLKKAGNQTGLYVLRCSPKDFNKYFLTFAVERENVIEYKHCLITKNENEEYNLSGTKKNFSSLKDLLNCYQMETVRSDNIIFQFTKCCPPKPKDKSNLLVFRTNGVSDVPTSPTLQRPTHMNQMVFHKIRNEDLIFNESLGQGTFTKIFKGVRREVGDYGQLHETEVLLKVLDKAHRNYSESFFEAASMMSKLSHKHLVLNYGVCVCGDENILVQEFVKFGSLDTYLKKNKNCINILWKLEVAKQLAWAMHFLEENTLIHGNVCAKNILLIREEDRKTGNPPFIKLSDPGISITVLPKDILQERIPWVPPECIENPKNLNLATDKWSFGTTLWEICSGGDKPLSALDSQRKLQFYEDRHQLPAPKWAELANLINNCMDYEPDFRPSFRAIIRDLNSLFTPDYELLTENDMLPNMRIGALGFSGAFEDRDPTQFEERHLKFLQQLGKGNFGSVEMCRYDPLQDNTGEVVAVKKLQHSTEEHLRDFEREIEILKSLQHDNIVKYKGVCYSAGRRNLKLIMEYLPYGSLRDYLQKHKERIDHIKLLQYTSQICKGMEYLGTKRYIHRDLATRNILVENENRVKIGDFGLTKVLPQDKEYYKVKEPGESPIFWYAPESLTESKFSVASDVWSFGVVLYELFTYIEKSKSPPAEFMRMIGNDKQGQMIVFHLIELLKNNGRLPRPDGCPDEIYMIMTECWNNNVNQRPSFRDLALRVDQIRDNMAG
Consider the following sequences; for each one, report its phosphorylation enrichment.
Respond using a number only.

Which phosphorylation enrichment reading was recorded for the sequence LGSVVYAQSKE [KCNQ2_Y226_H228Q] ?
1.19

What value of measured phosphorylation enrichment is listed for KNNDGNIDYAE [MCFD2_Y135_Y135N] ?
0.776

For YRVAGYKTQGG [TIA1_Y383_E384K] , what is its reported phosphorylation enrichment?
0.42

phosphorylation enrichment for YIGVTYKNKED [PDGFRA_Y993_E996K] ?
0.809

Which phosphorylation enrichment value belongs to TRSYDYMEGED [FGF7_Y58_G62E] ?
1.51

Need phosphorylation enrichment of RAFRRYLLKQK [SCN2A_Y1919_YF] , thanks.
0.712

// query phosphorylation enrichment value for entry GAVGNYSRGLA [MGMT_Y158_G160R]
0.38

# get_value(readout='phosphorylation enrichment', item= MYVKSYTIHYS [F5_Y2153] )
0.86

Request the reported phosphorylation enrichment associated with AATTAYSKPKR [MAP3K7_Y405]
0.425

Look at this sequence and give its reported phosphorylation enrichment. WTAHSYRMGST [ARHGEF7_Y785]
0.432

Return reported phosphorylation enrichment; argument: ADLTEYLSTHF [UQCRC1_Y219_YF]
1.2

Data request, read-out phosphorylation enrichment, for AEARMYGVLPW [PLP1_Y207_D203E]
0.65

Data request, read-out phosphorylation enrichment, for RDGDRYFKGIV [DCX_Y64_N60D]
0.609

Recorded phosphorylation enrichment of VTRLRYPVCFG [ITK_Y336] , please.
0.825
